# target_desc: Estrogen receptor beta (Homo sapiens) (UniProt Q92731)
# Sequence (Q92731 whole entry, looked up): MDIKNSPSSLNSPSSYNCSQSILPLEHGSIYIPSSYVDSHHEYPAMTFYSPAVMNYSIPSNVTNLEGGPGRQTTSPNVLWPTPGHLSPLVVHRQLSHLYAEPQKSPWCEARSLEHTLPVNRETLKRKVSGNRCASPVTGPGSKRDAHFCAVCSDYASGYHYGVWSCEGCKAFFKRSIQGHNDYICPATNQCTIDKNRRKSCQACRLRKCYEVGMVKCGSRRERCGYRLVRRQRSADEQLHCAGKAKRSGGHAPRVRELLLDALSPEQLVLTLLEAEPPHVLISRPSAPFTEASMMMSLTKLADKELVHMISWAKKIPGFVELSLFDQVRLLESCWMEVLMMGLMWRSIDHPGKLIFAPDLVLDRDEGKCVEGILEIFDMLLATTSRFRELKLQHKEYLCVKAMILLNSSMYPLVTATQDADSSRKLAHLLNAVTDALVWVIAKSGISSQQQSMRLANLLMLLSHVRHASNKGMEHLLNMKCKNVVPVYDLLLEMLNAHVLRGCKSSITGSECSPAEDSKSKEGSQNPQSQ
# procedure_text: qHTS assay to identify small molecule agonists of the estrogen receptor beta (ER-beta) signaling pathway (AID 1259377); further: on the % scale 0 is the no-effect control and ±100 the full control effect
# reported_conditions: ER-beta-UAS-bla HEK293T, beta-lactamase FRET ratio, 16 h; series mostly up to 92.4 µM
Inconclusive results are not listed. The source made the active and inactive calls. The call rests on the fitted dose curve; in most records, active means well fitted activation curve with a large enough effect in the signal ratio in the repeat runs (not every such curve was filed as active); inconclusive means weak or mixed curves, or effect the other way; inactive means flat fitted curve, though single readings scatter; the % refers to the signal ratio.
recorded_metric: activation

INSERT INTO assay_data (compound, recorded_metric, assay_value) VALUES
  ('CCCCOCC(C)OCC(C)O (stereo not drawn)', 'activation', 'inactive'),
  ('CC(C)(O)C(=O)c1ccc(OCCO)cc1', 'activation', 'inactive'),
  ('CC1(C)SC(C)(C)SC(C)(C)S1', 'activation', 'inactive'),
  ('CC(C)(C)CC(C)(C)N', 'activation', 'inactive'),
  ('O=C1OC(=O)c2cc([N+](=O)[O-])ccc21', 'activation', 'inactive'),
  ('CCCc1ccccc1O', 'activation', 'inactive'),
  ('c1cc(CN2CCCCC2)cc(OCCCNc2nc3ccccc3s2)c1', 'activation', 'inactive'),
  ('CCc1cc(S(=O)(=O)O)c2cc(C(C)C)cccc1-2', 'activation', 'inactive'),
  ('CC(C)c1cccc(O)c1', 'activation', 'inactive'),
  ('CC(C)(C)C(=O)/C=C/c1ccc(Cl)cc1', 'activation', 'inactive'),
  ('Oc1cc(O)c2c(c1)O[C@H](c1ccc(O)c(O)c1)[C@H](O)C2', 'activation', 'inactive'),
  ('CC(C)COC(=O)C(C)C', 'activation', 'inactive'),
  ('Cc1nccn1CC1CCc2c(c3ccccc3n2C)C1=O (stereo not drawn)', 'activation', 'inactive'),
  ('CCCC(C)CO (stereo not drawn)', 'activation', 'inactive'),
  ('COCc1ccc(COC)cc1', 'activation', 'inactive'),
  ('CC(O)CN(CCCN(C)C)CCCN(C)C (stereo not drawn)', 'activation', 'inactive'),
  ('C1=C\CC/C=C\CC/C=C\CC/1', 'activation', 'inactive'),
  ('OCc1ccccn1', 'activation', 'inactive'),
  ('Oc1ccc2c(c1)OC[C@@H](N1CCC(O)(c3ccc(F)cc3)CC1)[C@H]2O', 'activation', 'inactive'),
  ('CCC(=O)Nc1cccc(N)c1', 'activation', 'inactive'),
  ('COC(=O)c1ccc(C(=O)OC)c(C(=O)OC)c1', 'activation', 'inactive'),
  ('CCCCc1ccc2cccc(S(=O)(=O)O)c2c1', 'activation', 'inactive'),
  ('CC(C)[N+](C)(C)CC(O)COc1cccc2ccccc12 (stereo not drawn)', 'activation', 'inactive'),
  ('Nc1cc(C(Cl)=C(Cl)Cl)c(S(N)(=O)=O)cc1S(N)(=O)=O', 'activation', 'inactive'),
  ('C[C@H](O)C(=O)Nc1c(I)c(C(=O)NC(CO)CO)c(I)c(C(=O)NC(CO)CO)c1I', 'activation', 'inactive'),
  ('C/C=C1\C(=O)C[C@H]2[C@@H]3CCC4=CC(=O)CC[C@]4(C)[C@H]3CC[C@]12C', 'activation', 'inactive'),
  ('CC(=O)N[C@@H](CCC(N)=O)C(=O)O', 'activation', 'inactive'),
  ('OC[C@H]1O[C@@H]2O[C@H]3[C@H](O)[C@@H](O)[C@@H](O[C@H]4[C@H](O)[C@@H](O)[C@@H](O[C@H]5[C@H](O)[C@@H](O)[C@@H](O[C@H]6[C@H](O)[C@@H](O)[C@@H](O[C@H]7[C@H](O)[C@@H](O)[C@@H](O[C@H]8[C@H](O)[C@@H](O)[C@@H](O[C@H]9[C@H](O)[C@@H](O)[C@@H](O[C@H]1[C@H](O)[C@H]2O)O[C@@H]9CO)O[C@@H]8CO)O[C@@H]7CO)O[C@@H]6CO)O[C@@H]5CO)O[C@@H]4CO)O[C@@H]3CO', 'activation', 'inactive'),
  ('O=C(O)C(O)[C@H](O)[C@@H](O)[C@H](O)[C@H](O)CO (stereo partly drawn)', 'activation', 'inactive'),
  ('COc1cc(C)cc(O)c1', 'activation', 'inactive'),
  ('N#CC1(O)CCCCC1', 'activation', 'inactive'),
  ('CCn1cc(C(=O)O)c(=O)c2cc(F)c(N3CCN(C)CC3)cc21', 'activation', '2.22% [at 19 µM] (inactive)'),
  ('CC(C)(O)c1ccccc1', 'activation', 'inactive'),
  ('C[N+](C)(C)CC[N+]1(C)Cc2c(Cl)c(Cl)c(Cl)c(Cl)c2C1', 'activation', 'inactive'),
  ('C1CCCCCCCCCCC1', 'activation', '-0.402% [at 19 µM] (inactive)'),
  ('O=C(O)/C=C/c1ccc(Cn2ccnc2)cc1', 'activation', 'inactive'),
  ('CO[Si](OC)(OC)OC', 'activation', 'inactive'),
  ('CCCCCOC(=O)Nc1nc(=O)n([C@@H]2O[C@H](C)[C@@H](O)[C@H]2O)cc1F', 'activation', 'inactive'),
  ('Nc1ccn(C2CO[C@H](CO)O2)c(=O)n1 (stereo partly drawn)', 'activation', 'inactive'),
  ('CC1CCN(CCCC(=O)c2ccc(F)cc2)CC1', 'activation', 'inactive'),
  ('CC(C)(O)Cc1ccccc1', 'activation', 'inactive'),
  ('O=S(=O)(O)c1ccccc1O', 'activation', 'inactive'),
  ('CCN1CCCC(OC(=O)C(c2ccccc2)c2ccccc2)C1 (stereo not drawn)', 'activation', 'inactive'),
  ('Cn1cnc2c(=O)[nH]c(N)nc21', 'activation', 'inactive'),
  ('O=C(O)Cc1cc(I)c(Oc2cc(I)c(O)c(I)c2)c(I)c1', 'activation', 'inactive'),
  ('CNC(=O)c1c(I)c(NC(=O)CCCCC(=O)Nc2c(I)c(C(=O)O)c(I)c(C(=O)NC)c2I)c(I)c(C(=O)O)c1I', 'activation', 'inactive'),
  ('C=CCn1c(=O)n([C@@H]2O[C@H](CO)[C@@H](O)[C@H]2O)c2nc(N)[nH]c(=O)c21', 'activation', 'inactive'),
  ('COC[C@H](c1ccc(C(F)(F)F)cc1)N1CCN(C2(C)CCN(C(=O)c3c(C)ncnc3C)CC2)C[C@H]1C', 'activation', 'inactive');

# credit: PubChem BioAssay (Tox21)
